Target: PD-L1/CHO-K1 cells (Homo sapiens (Human), UniProt Q9NZQ7)
Sequence (Q9NZQ7 19-290): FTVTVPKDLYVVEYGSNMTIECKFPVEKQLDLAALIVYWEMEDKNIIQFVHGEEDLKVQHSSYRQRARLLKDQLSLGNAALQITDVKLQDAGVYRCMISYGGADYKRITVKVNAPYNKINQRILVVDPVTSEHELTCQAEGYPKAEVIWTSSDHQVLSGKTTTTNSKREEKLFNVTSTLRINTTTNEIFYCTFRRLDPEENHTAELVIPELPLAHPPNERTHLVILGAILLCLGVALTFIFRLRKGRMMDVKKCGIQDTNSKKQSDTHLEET
Experiment: PD-L1 internalization (FACS, PD-L1/CHO-K1 cells)
Format: cell-based
Details: % activation of PD-L1 internalization = 1 − PD-L1 signal; 17 hours incubation
This listing pairs compounds with measured Internalization.
Just so you know, I need the unit written after the number.

O=C(O)C[C@H](CO)NCCN1C(=O)COc2cc(-c3cccc(-c4cccc(-c5ccc6c(c5)OCC(=O)N6CCN[C@@H](CO)CC(=O)O)c4Cl)c3Cl)ccc21 ... 13.30%

Input line: Any idea what Internalization was measured for O=C1COc2cc(-c3cccc(-c4cccc(-c5ccc6c(c5)OCC(=O)N6C[C@@H]5C[C@@H](O)CN5)c4Cl)c3Cl)ccc2N1C[C@@H]1C[C@@H](O)CN1 ?
Output line: 17.20%

Input line: Internalization lookup needed for COC[C@H](NCCN1C(=O)COc2cc(-c3cccc(-c4cccc(-c5ccc6c(c5)OCC(=O)N6CCN[C@@H](COC)C(=O)O)c4Cl)c3Cl)ccc21)C(=O)O , thanks.
Output line: 2.00%

----------
Molecular target: PD-1/PD-L1 (Homo sapiens (Human))
Assay: PD-1/PD-L1 Homogeneous Time-Resolved Fluorescence (HTRF) binding assay
Details: 3 nM PD1, 10 nM PD-L1, 25° C., PBS pH 7.4
Flag rule - IC50 less than 20 nM flags t; the remaining entries get f.

CC(C)[C@H](N)C(=O)N1CCC[C@H]1CN1C(=O)COc2cc(-c3cccc(-c4cccc(-c5ccc6c(c5)OCC(=O)N6C[C@@H]5CCCN5C(=O)[C@@H](N)C(C)C)c4Cl)c3Cl)ccc21 ... f

Input line: Is it true that IC50 reported for CC(C)(C)OC[C@H](NCCN1C(=O)COc2cc(-c3cccc(-c4cccc(-c5ccc6c(c5)OCC(=O)N6CCN[C@@H](COC(C)(C)C)C(=O)O)c4Cl)c3Cl)ccc21)C(=O)O is less than 20 nM?
Output line: t

Input line: # check: IC50 < 20 nM for O=C1C[C@@H](NCCN2C(=O)COc3cc(-c4cccc(-c5cccc(-c6ccc7c(c6)OCC(=O)N7CCN[C@H]6COC(=O)C6)c5Cl)c4Cl)ccc32)CO1
Output line: t

Input line: Check if IC50 falls below 20 nM for CC(=O)NCCNCCN1C(=O)COc2cc(-c3cccc(-c4cccc(-c5ccc6c(c5)OCC(=O)N6C[C@@H]5CCCN5)c4Cl)c3Cl)ccc21 .
Output line: t

Input line: Does O=C1COc2cc(-c3cccc(-c4cccc(-c5ccc6c(c5)OCC(=O)N6Cc5ncc[nH]5)c4Cl)c3Cl)ccc2N1Cc1ncc[nH]1 have IC50 strictly under 20 nM?
Output line: f

----------
Target: PD-L1/CHO-K1 cells (Homo sapiens (Human), UniProt Q9NZQ7)
Test: PD-L1 internalization (FACS, PD-L1/CHO-K1 cells)
Assay type: cell-based
Conditions: % activation of PD-L1 internalization = 1 − PD-L1 signal; 17 hours incubation
readout.type: Internalization
Please state the number and follow it with the unit.

Use the examples below as a reference point.
O=C(O)[C@H](CO)NCCN1C(=O)COc2c1ccc(-c1cccc(-c3cccc(-c4ccc5c(c4F)OCC(=O)N5CCN[C@@H](CO)C(=O)O)c3Cl)c1Cl)c2F [Compound 557] ... 20.30%
CC(CO)(NCCN1C(=O)COc2cc(-c3cccc(-c4cccc(-c5ccc6c(c5)OCC(=O)N6CCNC(C)(CO)C(=O)O)c4Cl)c3Cl)ccc21)C(=O)O (centres unmarked) [Compound 475] ... 31.50%

Input line: Quick check: Internalization of C[C@@H](O)[C@H](NCCN1C(=O)COc2cc(-c3cccc(-c4cccc(-c5ccc6c(c5)OCC(=O)N6CCN[C@H](C(=O)O)[C@@H](C)O)c4Cl)c3Cl)ccc21)C(=O)O [Compound 545] ?
Output line: 7.80%

Input line: If you can, please state the reported Internalization value of O=C(O)[C@H](CCO)NCCN1C(=O)COc2cc(-c3cccc(-c4cccc(-c5ccc6c(c5)OCC(=O)N6CCN[C@@H](CCO)C(=O)O)c4Cl)c3Cl)ccc21 [Compound 560] .
Output line: 3.10%

Input line: Entry Cc1c(-c2ccc3c(c2)OCC(=O)N3CCN[C@@H](CO)C(=O)O)cccc1-c1cccc(-c2ccc3c(c2)OCC(=O)N3CCN[C@@H](CO)C(=O)O)c1C [Compound 585] has what Internalization?
Output line: 39.00%

----------
Molecular target: PD-L1/CHO-K1 cells (Homo sapiens (Human), UniProt Q9NZQ7)
Test: PD-L1 internalization (FACS, PD-L1/CHO-K1 cells)
Format: cell-based
Conditions: % activation of PD-L1 internalization = 1 − PD-L1 signal; 17 hours incubation
Internalization by entry:
Field format: number, assumed %, no unit text.

O=C1CC[C@@H](CN2C(=O)CNc3cc(-c4cccc(-c5cccc(-c6ccc7c(c6)NCC(=O)N7C[C@@H]6CCC(=O)N6)c5Cl)c4Cl)ccc32)N1 ... 5.50
O=C(O)C1CCN(CCN2C(=O)COc3cc(-c4cccc(-c5cccc(-c6ccc7c(c6)OCC(=O)N7CCN6CC[C@H](O)C6)c5Cl)c4Cl)ccc32)C1 (stereo partly shown) ... 8.70
O=C1CC[C@@H](CN2C(=O)COc3cc(-c4cccc(-c5cccc(-c6cc7c(cc6F)N(C[C@@H]6CCC(=O)N6)C(=O)CO7)c5Cl)c4Cl)c(F)cc32)N1 ... 6.10
O=C1COc2cc(-c3cccc(-c4cccc(-c5ccc6c(c5)OCC(=O)N6C[C@@H]5CCNC5)c4Cl)c3Cl)ccc2N1C[C@@H]1CCNC1 ... 3.50
O=C(O)CC(O)CNCCN1C(=O)COc2cc(-c3cccc(-c4cccc(-c5ccc6c(c5)OCC(=O)N6CCNCC(O)CC(=O)O)c4Cl)c3Cl)ccc21 (stereo not shown) ... 20.90

Input line: So what's the measured Internalization for this one? O=C1COc2cc(-c3cccc(-c4cccc(-c5ccc6c(c5)OCC(=O)N6C[C@@H]5CCCN5)c4Cl)c3Cl)ccc2N1C[C@@H]1CCCN1
Output line: 66.90

Input line: I'd like to know its Internalization. The molecule in question is O=C1COc2cc(-c3cccc(-c4cccc(-c5ccc6c(c5)OCC(=O)N6C[C@@H]5CC(F)(F)CN5)c4Cl)c3Cl)ccc2N1C[C@@H]1CC(F)(F)CN1
Output line: 1.60

Input line: Please look up its Internalization: C[C@H]1CC[C@@H](CN2C(=O)COc3cc(-c4cccc(-c5cccc(-c6ccc7c(c6)OCC(=O)N7C[C@@H]6CC[C@H](C)N6)c5Cl)c4Cl)ccc32)N1
Output line: 21.00

Input line: What does the record list as Internalization for O=C1CC[C@@H](CNCCN2C(=O)COc3cc(-c4cccc(-c5cccc(-c6ccc7c(c6)OCC(=O)N7CCNC[C@@H]6CCC(=O)N6)c5Cl)c4Cl)ccc32)N1 ?
Output line: 12.20

Input line: Look at this molecule and give its reported Internalization. O=C(O)[C@H](CO)NCCN1C(=O)COc2cc(-c3cccc(-c4cccc(-c5cc6c(cc5F)N(CCN[C@@H](CO)C(=O)O)C(=O)CO6)c4Cl)c3Cl)c(F)cc21
Output line: 23.20

----------
Target: PD-1/PD-L1 (Homo sapiens (Human), UniProt Q9NZQ7)
Sequence (Q9NZQ7 19-238): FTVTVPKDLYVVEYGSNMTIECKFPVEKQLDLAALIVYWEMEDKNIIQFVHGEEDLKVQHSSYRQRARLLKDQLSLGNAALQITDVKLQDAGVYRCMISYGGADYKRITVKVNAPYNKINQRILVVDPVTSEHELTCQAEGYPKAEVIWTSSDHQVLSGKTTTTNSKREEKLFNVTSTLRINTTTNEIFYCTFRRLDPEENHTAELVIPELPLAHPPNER
Test: PD-1/PD-L1 Homogeneous Time-Resolved Fluorescence (HTRF) binding assay
Details: 3 nM PD1, 10 nM PD-L1, 25° C., PBS pH 7.4
readout.type: IC50 (nM)
Numbers only; they are read as nM.

Field: example entries. Status: answers known.
O=C1COc2cc(-c3cccc(-c4cccc(-c5ccc6c(c5)OCC(=O)N6C[C@H]5CCNC5)c4Cl)c3Cl)ccc2N1C[C@H]1CCNC1 ... 7.22
O=C(O)[C@@H]1C[C@H](O)CN1CCN1C(=O)COc2cc(-c3cccc(-c4cccc(-c5ccc6c(c5)OCC(=O)N6CCN5C[C@@H](O)C[C@H]5C(=O)O)c4Cl)c3Cl)ccc21 ... 8.76
O=C1COc2cc(-c3cccc(-c4cccc(-c5ccc6c(c5)OCC(=O)N6C[C@@H]5COCCN5)c4Cl)c3Cl)ccc2N1C[C@@H]1CCCCN1 ... 8.98

Input line: Can you share its IC50? I mean this compound: O=C1CC[C@@H](CN2C(=O)COc3cc(-c4cccc(-c5cccc(-c6cc(F)c7c(c6)OCC(=O)N7C[C@@H]6CCC(=O)N6)c5Cl)c4Cl)cc(F)c32)N1
Output line: 11.7

----------
Target: PD-1/PD-L1 (Homo sapiens (Human))
Assay: PD-1/PD-L1 Homogeneous Time-Resolved Fluorescence (HTRF) binding assay
Details: 3 nM PD1, 10 nM PD-L1, 25° C., PBS pH 7.4
# reported pIC50; entries follow
Please express pIC50 as -log10 of the molar concentration.

Consider the worked cases shown below.
O=C(O)[C@H]1C[C@@H](O)CN1CCN1C(=O)COc2cc(-c3cccc(-c4cccc(-c5ccc6c(c5)OCC(=O)N6CCN5C[C@H](O)C[C@@H]5C(=O)O)c4Cl)c3Cl)ccc21 ... 8.19
O=C(O)CNCCCN1C(=O)COc2cc(-c3cccc(-c4cccc(-c5ccc6c(c5)OCC(=O)N6CCCNCC(=O)O)c4Cl)c3Cl)ccc21 ... 8.22
O=C1NCCN1CCN1C(=O)COc2cc(-c3cccc(-c4cccc(-c5ccc6c(c5)OCC(=O)N6CCN5CCNC5=O)c4Cl)c3Cl)ccc21 ... 6.58

Okay, now this compound:
Input line: Would you mind telling me what pIC50 value was observed for N#Cc1cncc(CCN2C(=O)COc3cc(-c4cccc(-c5cccc(-c6ccc7c(c6)OCC(=O)N7CCc6cncc(C#N)c6)c5Cl)c4Cl)ccc32)c1 ?
Output line: 7.16
